Data credit: patent US5922557A

System: PKA in CHO-K1 cells stably expressing PDE IVa
Test: Whole-cell cAMP dependent protein kinase (PKA) activity ratio
Format: cell-based
Details: CHO-K1; with 1 μM PGI2; read-out: apparent EC50 to activate PKA
Method: PKA activity ratios were determined as the amount of ^32 P transferred to histone F2B in the presence and absence of cAMP as described in Materials and Methods. […] CHO-K1 cells were grown and resuspended as described above except that the Hank's buffer was replaced by a solution containing 0.25M sucrose; 10 mM Tris, pH 7.5; and 0.5 mM EDTA. […] The amount of -32P incorporation was measured by placing the filters in Aquasol and counting in a BECKMAN LSC 5000. […]
Can you tell me EC50 for the items I'm about to list?
Numbers only, in nM.

In [3]: df
Out[3]:
                                   molecule  recorded_result
0  COc1ccc([C@H]2CNC(=O)C2)cc1OC1CCCC1 [(S)-rolipram]             1000
1  COc1ccc([C@@H]2CNC(=O)C2)cc1OC1CCCC1 [(R)-rolipram]              168

Now examine the next entry.
Form field, EC50 with PKA in CHO-K1 cells stably expressing PDE IVa, item O=[N+]([O-])c1cccc(-c2cc(Cc3ccncc3)cc3cccnc23)c1 [RS 14203] : 10
